Below, each entry is listed with its recorded pKd.
- Target or test system: T1, human Scribble (SCRIB) PDZ1 domain (residues 725-815) (human, UniProt Q14160 725-815)
- T1 construct: also called PDZ1 WT
- T1 sequence (Q14160 725-815): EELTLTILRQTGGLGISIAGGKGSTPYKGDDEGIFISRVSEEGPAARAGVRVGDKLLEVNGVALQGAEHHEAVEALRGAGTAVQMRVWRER
- Method description: ITC
- Test settings: both partners purified
pKd: −log10 of the molar value.
Value kind: pKd

KMARTIESKV [NS1 ESKV PBM peptide KMARTIESKV (H5N1 A/chicken/Hubei/327/2004), 10-mer] : 4.52
KMARTIESEV [NS1 ESEV PBM peptide KMARTIESEV (H5N1 A/Viet Nam/1194/2004), 10-mer] : 4.67
